Test system: MDA-MB-435 melanoma
Assay: NCI-60 one-dose screen, 48 h
Settings: 10 µM unless noted
The panel holds about 83,000 compounds, 20% with a hit somewhere; the sample as a whole holds those more often. The source made the active and inactive calls. The calls were made as follows: active = growth percent below 10; inactive = the rest.
Classes used: active, inactive

1) C=C(C)[C@@H]1CC[C@]2(C(=O)NCCCCCCN(CCCN)CCCN)CC[C@]3(C)[C@H](CC[C@@H]4[C@@]5(C)CC[C@H](OCCCN)C(C)(C)[C@@H]5CC[C@]43C)[C@@H]12: inactive
2) CCN(CC)CCSC(=O)C(O)(c1ccccc1)C1CCCC1 (centres undefined): inactive
3) NC(=O)c1c(NC(=O)COC(=O)Cc2ccccc2F)sc2c1CCC2: inactive
4) Cc1ccc2c(n1)C(=O)C(Cl)=C(Nc1ccc(N3CCN(C)CC3)cc1)C2=O: active
